Biological target: recombinant soluble homotrimeric HA of A/chicken/Vietnam/NCVD-016/08 (H5N1) (Influenza A virus A/chicken/Vietnam/NCVD-016/2008 (H5N1))
Test: HA microarray, BCC supernatant
Details: remark: other sources report otherwise
This listing pairs binders with measured Trimeric HA Binding RLU.
Expressed in RLU, but write only the number.

Reported Trimeric HA Binding RLU of TCN-535 (5246_P19) (antibody, V domains shown) VH: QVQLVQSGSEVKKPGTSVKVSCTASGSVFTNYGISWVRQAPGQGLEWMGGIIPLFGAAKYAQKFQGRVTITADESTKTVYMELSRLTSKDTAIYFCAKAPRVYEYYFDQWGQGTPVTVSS VL: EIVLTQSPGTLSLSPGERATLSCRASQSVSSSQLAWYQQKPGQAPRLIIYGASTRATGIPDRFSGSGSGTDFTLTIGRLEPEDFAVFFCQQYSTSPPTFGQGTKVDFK : 50000

Reported Trimeric HA Binding RLU of TCN-546 (5089_L08) (antibody, V domains shown) VH: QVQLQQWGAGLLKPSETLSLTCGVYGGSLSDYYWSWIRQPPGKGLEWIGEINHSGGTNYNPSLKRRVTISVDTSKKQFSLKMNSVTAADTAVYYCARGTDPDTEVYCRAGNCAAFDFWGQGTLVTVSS VL: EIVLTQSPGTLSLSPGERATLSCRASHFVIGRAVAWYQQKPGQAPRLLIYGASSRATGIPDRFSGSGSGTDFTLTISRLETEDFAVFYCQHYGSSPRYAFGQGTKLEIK : 421
